Target: LTC4 synthase (Homo sapiens, UniProt Q16873)
Construct: expressed in transfected cells; host or cells: COS-7 (lysate of transfectants; cDNA from a KG-1 library in pcDNA3)
Sequence (Q16873 1-150): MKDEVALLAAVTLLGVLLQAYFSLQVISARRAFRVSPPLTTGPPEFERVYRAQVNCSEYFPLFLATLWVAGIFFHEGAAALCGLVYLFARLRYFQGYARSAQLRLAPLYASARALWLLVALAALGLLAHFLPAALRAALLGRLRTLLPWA
Test: Inhibition of LTC4 synthase activity (conversion of LTA4-ME to LTC4-ME) in lysates of transfected COS-7 cells
Assay type: biochemical
Settings: ID50, inhibition of LTC4 synthase activity, transfected COS cell lysates; dose-related (Discussion)
measured.parameter: IC50

Short answer please: IC50, LTC4 synthase (Homo sapiens, UniProt Q16873), entry `CC(C)c1ccc2c(c1)c(SC(C)(C)C)c(CC(C)(C)C(=O)O)n2Cc1ccc(Cl)cc1` ~3 µM
